# System: P388 leukemia ip, CD2F1 mice, survival T/C
# PROTOCOL: NCI In Vivo Anticancer Drug Screen. Data for tumor model P388 Leukemia (intraperitoneal) in CD2F1 (CDF1) mice
# TEST PARAMETERS: endpoint: median survival time; dose: 200.0 mg/kg/injection; schedule: Q01DX009 (ip); vehicle: Klucel (hydroxypropylcellulose) (HPC); higher = longer survival
Inconclusive results and toxic doses are left out.
Overview of reported T/C across a group of molecules:

>>> experimental_value("CCCCCCCCCCCC1C(C#N)C(=O)NC(=O)C1C#N (stereo not given)")
"100 % of control"
>>> experimental_value("CC(=O)C1CCC=CC1Sc1ccccc1 (stereo not given)")
"121 % of control"
>>> experimental_value("C[N+]1(C)[B]C[N+](C)(C)[B-]1")
"103 % of control"
>>> experimental_value("O=S(=O)(NCCNS(=O)(=O)c1ccccc1)c1ccccc1")
"91 % of control"
>>> experimental_value("Cc1csc(N=Nc2ccc(N(C)C)cc2)[n+]1[O-]")
"108 % of control"
>>> experimental_value("Oc1ccccc1C=Nc1ccc2nc(SC3CCCC3)sc2c1")
"118 % of control"
>>> experimental_value("Nc1nc(-c2cc3cc(Cl)ccc3o2)cs1")
"100 % of control"
>>> experimental_value("O=C(N/N=C\\c1ccc(O)cc1O)C(=O)N/N=C\\c1ccc(O)cc1O")
"100 % of control"
>>> experimental_value("C=CCNC(=S)/N=C1\\N=S(C)(=O)c2ccccc21 (stereo not given)")
"102 % of control"
>>> experimental_value("Cn1nc(CC#N)c2c(=N)n(N)cnc21")
"113 % of control"

GET T/C | system: P388 leukemia ip, CD2F1 mice, survival T/C | item: O=C(c1cc2ccccc2o1)N1CCN(Cc2ccccc2)CC1
109 % of control

----------
# Test system: P388 leukemia ip, CD2F1 mice, survival T/C
# PROTOCOL: NCI In Vivo Anticancer Drug Screen. Data for tumor model P388 Leukemia (intraperitoneal) in CD2F1 (CDF1) mice
# TEST PARAMETERS: endpoint: median survival time; dose: 50.0 mg/kg/injection; schedule: Q01DX001 (ip); vehicle: saline with Tween-80; higher = longer survival
Inconclusive results and toxic doses are left out.
Overview of reported T/C across a group of molecules:

Please review the following examples before continuing.
>>> experimental_value("Cc1cc2ncc(-c3ccccc3)nc2cc1C")
"100 % of control"
>>> experimental_value("OC1CC2CCCCC2CC1(O)c1ccc(OCc2ccccc2)c(OCc2ccccc2)c1 (stereo unspecified)")
"88 % of control"
>>> experimental_value("CSc1nc2n(C)cc(C)cc-2c(=O)n1")
"97 % of control"
>>> experimental_value("COc1ccc2cc1Oc1ccc(cc1)CC1c3cc(c(OC)cc3CCN1C)Oc1c(OC)c(OC)c(O)c3c1C(C2)N(C)CC3 (stereo unspecified)")
"105 % of control"
>>> experimental_value("CCOC(=O)/C=C(\\C(=O)OCC)N(O)C(=O)CN1C(=O)c2ccccc2C1=O")
"106 % of control"

Moving on to another molecule below.
Using known records, supply T/C for c1ccc(C2OCCN2c2ccccc2)cc1 (stereo unspecified)
107 % of control

----------
# Test system: P388 leukemia ip, CD2F1 mice, survival T/C
# PROTOCOL: NCI In Vivo Anticancer Drug Screen. Data for tumor model P388 Leukemia (intraperitoneal) in CD2F1 (CDF1) mice
# TEST PARAMETERS: endpoint: median survival time; dose: 25.0 mg/kg/injection; schedule: Q04DX003 (ip); vehicle: saline with Tween-80; higher = longer survival
Inconclusive results and toxic doses are left out.
MEASURED QUANTITY: T/C

Please review the following examples before continuing.
>>> experimental_value("N=c1ncn(C2OC(CO)C(O)C2O)c2nc(Br)[nH]c12 (centres undefined)")
"100 % of control"
>>> experimental_value("O=C(/C=C\\c1ccc(NCc2ccc(C(=O)O)cc2)cc1)CCl")
"100 % of control"

Using known records, supply T/C for O=C1NCNC(=O)N1
98 % of control

Using known records, supply T/C for O=C(O)CCCNC1=CC(=O)c2ccccc2C1=O
101 % of control
